# system_name: T1, cynomolgus/human MAdCAM chimera (on CHO cells) (cynomolgus/human)
# T1 chain: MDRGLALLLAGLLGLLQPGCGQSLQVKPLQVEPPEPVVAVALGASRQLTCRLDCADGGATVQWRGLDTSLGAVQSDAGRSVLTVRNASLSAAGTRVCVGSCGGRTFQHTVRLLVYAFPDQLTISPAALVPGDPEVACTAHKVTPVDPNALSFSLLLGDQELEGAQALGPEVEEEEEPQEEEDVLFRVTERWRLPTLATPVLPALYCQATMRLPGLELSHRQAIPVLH
# assay_remarks: competition, JY cell adhesion to CHO
experimental_endpoint: IC50 (µg/mL)

9.8.2 (antibody, V domains shown) VH: QVQLVESGGGVVQPGRSLRLSCAASGFTFSSYGMHWVRQAPGKGLEWVAVIWYDGSNEYYADSVKGRFTISRDNSKNTLYLQMNSLRAEDTAVYYCARGAYHFAYWGQGTLVTVSS VL: DMRVPAQLLGLLLLWLSVAGARCDIQMTQSPSSLSASVGDRVTITCQASQDISNYLNWYQQKPGKAPKLLIYDASNLETGVPSRFSGSGSGTDFTFTISSLQPEDIATYSCQHSDNLSITFGQGTRLEIKR; 0.83

Cited source for all entries: patent US20050232917
